pIC50: −log10 of the molar value.
Notes on pIC50 obtained with UniProt:P10415.
Sequence (P10415 whole entry): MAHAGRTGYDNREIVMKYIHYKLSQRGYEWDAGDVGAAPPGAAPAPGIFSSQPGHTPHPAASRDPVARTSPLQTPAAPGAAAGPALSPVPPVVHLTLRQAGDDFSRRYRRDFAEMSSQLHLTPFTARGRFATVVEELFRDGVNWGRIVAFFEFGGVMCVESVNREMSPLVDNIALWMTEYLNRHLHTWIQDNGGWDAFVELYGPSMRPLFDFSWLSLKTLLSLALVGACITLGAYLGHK
Assay readout: pIC50

Compound | Tested system | Assay readout | Observed result
CCCCN(CCCC)C(=O)c1cc(C)n(-c2ccc(NC(=O)c3cnc(N4CCCC4)nc3)cc2C(=O)N2Cc3ccccc3C[C@H]2CO)n1 [Example 88] | UniProt:P10415 | pIC50 | 6.39 to 6.41
CCCCN(CCCC)C(=O)c1cc(C)n(-c2ccc(NC(=O)c3cn4cc(Cl)ccc4n3)cc2C(=O)N2Cc3ccccc3C[C@H]2CO)n1 [Example 43] | UniProt:P10415 | pIC50 | 6.22 to 6.28
CCCCN(CCCC)C(=O)c1cc(C)n(-c2ccc(NC(=O)COC3CCCCC3)cc2C(=O)N2Cc3ccccc3C[C@H]2CO)n1 [Example 128] | UniProt:P10415 | pIC50 | 6.57
CCCCN(CCCC)C(=O)c1cc(C)n(-c2ccc(NC(=O)Cc3ccccc3)cc2C(=O)N2Cc3ccccc3C[C@H]2CO)n1 [Example 5] | UniProt:P10415 | pIC50 | 6.89 to 7.02
CCCCN(CCCC)C(=O)c1cc(C)n(-c2ccc(NC(=O)Cc3ccc(F)cc3)cc2C(=O)N2Cc3ccccc3C[C@H]2CO)n1 [Example 98] | UniProt:P10415 | pIC50 | 6.51 to 6.52
CCCCC(CCCC)C(=O)c1cc(C)n(-c2ccc(NC(=O)COc3cccc4ccccc34)cc2C(=O)N2Cc3ccccc3C[C@H]2CO)n1 [Example 110] | UniProt:P10415 | pIC50 | 6.50 to 6.56
CCCCN(CCCC)C(=O)c1cc(C)n(-c2ccc(NC(=O)C(CC(=O)OCC)c3ccccc3)cc2C(=O)N2Cc3ccccc3C[C@H]2CO)n1 (stereo partly shown) [Example 53] | UniProt:P10415 | pIC50 | 6.73 to 6.74
CCCCN(CCCC)C(=O)c1cc(C)n(-c2ccc(NC(=O)Cc3ccc(OC)c(C)c3)cc2C(=O)N2Cc3ccccc3C[C@H]2CO)n1 [Example 95] | UniProt:P10415 | pIC50 | 6.81 to 6.83
CCCCN(CCCC)C(=O)c1cc(C)n(-c2ccc(NC(=O)CCc3cn4cccnc4n3)cc2C(=O)N2Cc3ccccc3C[C@H]2CO)n1 [Example 79] | UniProt:P10415 | pIC50 | 6.40 to 6.43
CCCCN(CCCC)C(=O)c1cc(C)n(-c2ccc(NC(=O)c3ccc(NS(=O)(=O)Cc4ccccc4)cc3)cc2C(=O)N2Cc3ccccc3C[C@H]2CO)n1 [Example 143] | UniProt:P10415 | pIC50 | 6.27 to 6.34
CCCCN(CCCC)C(=O)c1cc(C)n(-c2ccc(NC(=O)c3n[nH]c4c3CCC4)cc2C(=O)N2Cc3ccccc3C[C@H]2CO)n1 [Example 112] | UniProt:P10415 | pIC50 | 5.99 to 6.02
CCCCN(CCCC)C(=O)c1cc(C)n(-c2ccc(NC(=O)CC(=O)O)cc2C(=O)N2Cc3ccccc3C[C@H]2CO)n1 [Example 19] | UniProt:P10415 | pIC50 | 6.44
CCCCN(CCCC)C(=O)c1cc(C)n(-c2ccc(NC(=O)C(CC(=O)N(C)C)c3ccccc3)cc2C(=O)N2Cc3ccccc3C[C@H]2CO)n1 (stereo partly shown) [Example 99] | UniProt:P10415 | pIC50 | 6.77 to 6.88
